Item-by-item account of CTG EC50 (CellTiter-Glo luminescent assay, SKBR3 cells, 72 h)
- target: human CD71 on cells (SKBR3; SW620-rLuc-KRAS) (human, UniProt P02786 1-760)
- Sequence (P02786 whole entry): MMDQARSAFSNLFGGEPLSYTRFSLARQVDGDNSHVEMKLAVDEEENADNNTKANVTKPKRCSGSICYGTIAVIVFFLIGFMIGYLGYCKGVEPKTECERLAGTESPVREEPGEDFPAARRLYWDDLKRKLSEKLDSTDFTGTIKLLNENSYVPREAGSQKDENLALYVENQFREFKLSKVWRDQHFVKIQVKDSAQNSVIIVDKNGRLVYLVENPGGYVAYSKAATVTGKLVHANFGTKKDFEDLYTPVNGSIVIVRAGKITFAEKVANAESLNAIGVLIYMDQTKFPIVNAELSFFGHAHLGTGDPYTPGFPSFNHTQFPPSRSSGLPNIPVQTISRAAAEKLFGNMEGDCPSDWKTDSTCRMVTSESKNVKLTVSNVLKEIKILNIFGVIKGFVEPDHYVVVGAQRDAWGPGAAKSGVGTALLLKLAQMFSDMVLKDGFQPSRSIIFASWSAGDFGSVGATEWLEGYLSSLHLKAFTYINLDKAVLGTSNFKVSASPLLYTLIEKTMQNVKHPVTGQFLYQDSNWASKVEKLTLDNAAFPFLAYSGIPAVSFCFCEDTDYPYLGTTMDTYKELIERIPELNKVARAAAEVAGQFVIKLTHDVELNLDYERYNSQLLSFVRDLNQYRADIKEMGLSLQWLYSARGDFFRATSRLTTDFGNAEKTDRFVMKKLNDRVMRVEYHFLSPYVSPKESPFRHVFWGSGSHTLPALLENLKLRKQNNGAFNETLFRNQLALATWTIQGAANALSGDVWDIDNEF
- procedureDetails: cell-based or functional assay
quantityKind: CTG EC50 (CellTiter-Glo luminescent assay, SKBR3 cells, 72 h) (nM)

binder | valueObserved
CD71-binding FN3 domain of SEQ ID NO: 974 (designed binder) MSLPAPKNLVVSRVTEDSARLSWTAPDAAFDSFFIGYLEPQPPGEAIALYVPGSERSYDLTGLKPGTEYNVTIQGVKGGFPSLPLVATFTT | 0.15
CD71-binding FN3 domain of SEQ ID NO: 281 (designed binder) MSLPAPKNLVVSRVTEDSARLSWTAPDAAFDSFFIGYLEPQPPGEAIALYVPGSERSYDLTGLKPGTEYNVTIQGVKGGFPSEPLIANFTT | 0.06
CD71-binding FN3 domain of SEQ ID NO: 270 (designed binder) MSLPAPKNLVVSRVTEDSARLSWTAPDAAFDSFFIGYLEPQPPGEAIHLYVPGSERSYDLTGLKPGTEYNVTIQGVKGGFPSEPLIANSTT | 0.57
CD71-binding FN3 domain of SEQ ID NO: 341 (designed binder) MSLPAPKNLVVSRVTEDSARLSWTAPDAAFDSFFIGYLEPQPPGEAIELYVPGSERSYDLTGLKPGTEYNVTIQGVKGGFPSLPLVAIFTT | 0.11
